Measured growth, listed per entry for reference.
Test system: HCT-15 colon
Assay: NCI-60 one-dose screen, 48 h (100 = growth as untreated, 0 = no growth, -100 = all killed)
Conditions: 10 µM unless noted
Compounds without any hit were thinned out: in the full panel of roughly 83,000, 20% have a hit.
Unit % implied. Number only.

Worked cases, answers included:
Cc1nc2sc(C(=O)Nc3cccc4c3OCCO4)c(N)c2cc1C(C)O (stereo unspecified) : 21.4
CCN(CC)Cc1cc(Nc2c3ccc(Cl)cc3nc3c(C)cccc23)ccc1O : -45.8
O=C(O)c1ccccc1Nc1cccc(S(F)(F)(F)(F)F)c1 : 94.7

The molecule listed as CCCCCCCCCCCCCCCCCCSC1=CC(=O)C(OC)=C(OC)C1=O shows growth equal to 98.7

Record summary for O=C1O[C@H]([C@H](O)CO)C(O)=C1O : reported growth = 103

Sample C/C=C/C(N)=O ; growth observed: 96.9
